Give PBM E-score for every item shown.
# TGT: Stb5 (UniProt P38699)
# Sequence: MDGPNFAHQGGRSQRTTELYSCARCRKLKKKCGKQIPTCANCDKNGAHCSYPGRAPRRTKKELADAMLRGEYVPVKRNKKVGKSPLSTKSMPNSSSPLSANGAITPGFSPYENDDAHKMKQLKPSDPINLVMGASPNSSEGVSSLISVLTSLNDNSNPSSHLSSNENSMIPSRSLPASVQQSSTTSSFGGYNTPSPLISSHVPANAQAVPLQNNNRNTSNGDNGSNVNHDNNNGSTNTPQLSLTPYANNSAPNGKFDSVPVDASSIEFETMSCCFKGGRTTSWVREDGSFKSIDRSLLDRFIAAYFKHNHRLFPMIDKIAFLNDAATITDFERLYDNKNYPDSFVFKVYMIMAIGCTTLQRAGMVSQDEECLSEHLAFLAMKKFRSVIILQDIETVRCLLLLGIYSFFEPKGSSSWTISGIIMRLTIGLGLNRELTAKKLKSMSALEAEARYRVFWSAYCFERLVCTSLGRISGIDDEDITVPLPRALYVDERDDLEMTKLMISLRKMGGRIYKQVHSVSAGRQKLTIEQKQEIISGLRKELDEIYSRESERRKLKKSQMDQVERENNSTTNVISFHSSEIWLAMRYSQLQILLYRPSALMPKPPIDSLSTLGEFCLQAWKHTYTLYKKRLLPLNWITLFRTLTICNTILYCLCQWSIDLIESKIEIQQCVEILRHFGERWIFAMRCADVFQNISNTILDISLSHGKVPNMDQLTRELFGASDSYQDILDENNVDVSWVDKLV
# PROTOCOL NOTES: PBM E-score (8-mer binding enrichment) (E-score (-0.5 to 0.5)); higher = stronger / more preferred TF binding
# MEASUREMENT SETUP: protein concentration: 200 nM; construct: GST-full length
In all, about 33,000 sequences were measured (“E-score (-0.5 to 0.5)”: median about -0.054, highest 2% from about 0.35 on). The full list was thinned out, with the highest values kept by preference.
Returns: the value as a bare number; no unit string appended.

Entry `ATGGCAAA` has what PBM E-score?
-0.0403

Entry `AGCAACCA` has what PBM E-score?
-0.068

Entry `CCCGGCTA` has what PBM E-score?
0.337

Entry `AAAGTCCG` has what PBM E-score?
0.466

Entry `GGCATTCA` has what PBM E-score?
0.0519

Entry `CAGCTGTC` has what PBM E-score?
-0.31

Entry `GTAAGCCA` has what PBM E-score?
-0.243

Entry `AGATTCAA` has what PBM E-score?
-0.16

Entry `TAAAAAGA` has what PBM E-score?
0.046

Entry `GGCCGCCA` has what PBM E-score?
0.141

Entry `CCCGCCCA` has what PBM E-score?
0.258

Values from the supplement of paper PMC3334620
